Test system: E57 (patient-derived glioblastoma stem cells of mesenchymal subtype);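 further: nuclei counted by high-content imaging of Hoechst-stained cells in laminin-coated 384-well plates, relative to 0.1% DMSO vehicle wells, with staurosporine as cell-death control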
ASSAY_OVERVIEW: surviving fraction (nuclei count normalised to DMSO); higher = more cells surviving (less toxic)
PARTICULARS: 333.3 nM; exposure time: 72 h
Structures can show the parent of a compound that is named as a salt.
ATTRIBUTE_MEASURED: surviving fraction
Keep the answer to the number alone.

// known answers, use as guide
CC(C)C[C@H](NC(=O)[C@H](CCc1ccccc1)NC(=O)CN1CCOCC1)C(=O)N[C@@H](Cc1ccccc1)C(=O)N[C@@H](CC(C)C)C(=O)[C@@]1(C)CO1	0.00509
CC(C)NCC(O)COc1cccc2ccccc12 (centres undefined) [Propranolol hydrochloride]	1.1

Which surviving fraction reading was recorded for the compound "CC[C@@H]1C(=O)N(C)c2cnc(Nc3ccc(C(=O)N[C@H]4CC[C@H](N5CCN(CC6CC6)CC5)CC4)cc3OC)nc2N1C(C)C" ?
0.123

Which surviving fraction reading was recorded for the compound "O=C(/C=C/c1cccnc1)NCCCCC1CCN(C(=O)c2ccccc2)CC1" ?
0.668
